Target: mouse melanocortin 3 receptor (mouse, UniProt P33033 1-323)
Sequence (P33033 whole entry): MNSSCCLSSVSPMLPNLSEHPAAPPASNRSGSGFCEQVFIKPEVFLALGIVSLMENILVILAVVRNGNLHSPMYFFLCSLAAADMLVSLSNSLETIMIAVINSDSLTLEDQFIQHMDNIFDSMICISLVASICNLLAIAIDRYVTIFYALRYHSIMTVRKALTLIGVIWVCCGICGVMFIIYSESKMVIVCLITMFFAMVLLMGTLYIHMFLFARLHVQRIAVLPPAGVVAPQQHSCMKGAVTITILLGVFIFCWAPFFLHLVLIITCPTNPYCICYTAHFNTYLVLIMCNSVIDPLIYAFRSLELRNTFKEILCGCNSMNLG
Assay: radioligand binding
Square brackets hold non-standard residues; d marks the D form.
assayMetric: IC50

The examples below pair each entry with its known result.
>  <binder>
cyclo(PRYFNAF[dP]) [c[Pro-Arg-Tyr-Phe-Asn-Ala-Phe-DPro]]

>  <IC50>
> 100 µM

$$$$
>  <binder>
cyclo(PCFFNAF[dP]) [c[Pro-Cys-Phe-Phe-Asn-Ala-Phe-DPro]]

>  <IC50>
> 100 µM

$$$$

What the record says about cyclo(PHFFNAF[dP]) [c[Pro-His-Phe-Phe-Asn-Ala-Phe-DPro]] : IC50 is > 100 µM
